Origin of the recorded values: paper PMC8443706

target: T1, IIB-Fc:ALK3-Fc heterodimer (human ActRIIB ECD-Fc paired with human ALK3 ECD-Fc) (human, UniProt Q13705-1 19-134; P36894 24-152); test: SPR; Biacore 8K, 37 °C; Fc-fusion receptor dimers captured by anti-human Fc antibody on a CM5 chip (100-150 RU); ligands injected in two-fold dilution series (300 s association, 600 s dissociation); HBS-EP+ supplemented with 350 mM NaCl and 0.5 mg/mL BSA; 1:1 Langmuir model with a term for mass transport; conditions: both partners purified
T1 construct: activin receptor type IIB (ActRIIB) extracellular domain, human, aa 19-134 of NP_001097.2; copies: 1 + 1
T1 sequence (Q13705 19-134, chain 1 of 2): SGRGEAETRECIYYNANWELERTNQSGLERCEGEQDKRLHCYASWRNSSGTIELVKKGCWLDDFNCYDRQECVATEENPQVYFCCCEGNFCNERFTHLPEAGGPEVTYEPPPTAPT
T1 sequence (P36894 24-152, chain 2 of 2): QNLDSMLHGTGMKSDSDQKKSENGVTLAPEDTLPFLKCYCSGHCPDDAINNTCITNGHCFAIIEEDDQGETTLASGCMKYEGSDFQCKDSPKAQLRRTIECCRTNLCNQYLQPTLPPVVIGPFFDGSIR
recorded_metric: kon (M⁻¹ s⁻¹)

binder	scale_unit	quantitative_result
BMP6 (ligand, human, UniProt P22004 375-513, looked up, source: bought: R&D Systems) SASSRRRQQSRNRSTQSQDVARVSSASDYNSSELKTACRKHELYVSFQDLGWQDWIIAPKGYAANYCDGECSFPLNAHMNATNHAIVQTLVHLMNPEYVPKPCCAPTKLNAISVLYFDDNSNVILKKYRNMVVRACGCH	M⁻¹ s⁻¹	4.6e+06
BMP7 (ligand, human, UniProt P18075 293-431, looked up, source: bought: R&D Systems) STGSKQRSQNRSKTPKNQEALRMANVAENSSSDQRQACKKHELYVSFRDLGWQDWIIAPEGYAAYYCEGECAFPLNSYMNATNHAIVQTLVHFINPETVPKPCCAPTQLNAISVLYFDDSSNVILKKYRNMVVRACGCH	M⁻¹ s⁻¹	1.19e+07
BMP10 (ligand, human, UniProt O95393 317-424, looked up, source: bought: R&D Systems) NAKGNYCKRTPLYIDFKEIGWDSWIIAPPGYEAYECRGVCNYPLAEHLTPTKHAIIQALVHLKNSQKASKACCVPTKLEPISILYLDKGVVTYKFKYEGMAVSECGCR	M⁻¹ s⁻¹	2.15e+07
